# STUDY_SYSTEM: peptide amidase from Xanthomonas maltophilia (Stenotrophomonas maltophilia)
# Construct: wild type, not recombinant
# Sequence (Q8RJN5 34-540): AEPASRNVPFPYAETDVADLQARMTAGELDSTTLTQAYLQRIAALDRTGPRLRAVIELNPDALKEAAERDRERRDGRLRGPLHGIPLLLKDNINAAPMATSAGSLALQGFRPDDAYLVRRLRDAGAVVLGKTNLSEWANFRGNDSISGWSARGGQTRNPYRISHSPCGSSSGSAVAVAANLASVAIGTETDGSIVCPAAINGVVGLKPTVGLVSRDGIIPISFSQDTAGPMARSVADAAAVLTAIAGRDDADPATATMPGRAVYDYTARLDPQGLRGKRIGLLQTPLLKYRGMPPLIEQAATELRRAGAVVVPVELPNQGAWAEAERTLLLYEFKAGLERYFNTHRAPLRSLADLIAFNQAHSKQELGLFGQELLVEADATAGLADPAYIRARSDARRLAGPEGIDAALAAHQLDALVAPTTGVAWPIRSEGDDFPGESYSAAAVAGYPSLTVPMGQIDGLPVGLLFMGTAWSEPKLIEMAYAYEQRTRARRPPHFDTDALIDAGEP
# MEASUREMENT_DESCRIPTION: Substrate spectrum of peptide amidase, enzymatic determination of the released ammonia
# Format: biochemical
# REPORTED_CONDITIONS: substrate 10 mM, 18 mU peptide amidase per ml, 50 mM tris/HCl pH 7.5, 30° C., 3 hours
Peptide text beside a SMILES is read from it.
List of Relative conversion (influence of protective group and adjacent amino acid, Table 4c) values.
# output: bare number, implied unit %

Worked set:
COMPOUND | VALUE_MEASURED
NCC(=O)N[C@@H](Cc1ccc(O)cc1)C(N)=O [Gly-Tyr-NH2] (H-Gly-Tyr-NH2) | 174
C[C@@H](NC(=O)OCc1ccccc1)C(N)=O | 0
C[C@H](NC(=O)OCc1ccccc1)C(N)=O | 62

Please look at the following compound next.
Look up and report measured Relative conversion (influence of protective group and adjacent amino acid, Table 4c) for this entry: COC(=O)NC(CCSC)C(N)=O (racemic) [N-Methoxy-D,L-Met-NH2, Nα -methoxycarbonyl-DL-methionine Amide]
109
